These measurements were taken from patent US20220119522A1.

System Under Test: T1, His-tagged human TREM2 ECD (human, UniProt Q9NZC2 19-172)
T1 construct: Biacore and HDX say only recombinant human TREM2 (ECD); also called recombinant human TREM2; hTREM2
T1 sequence: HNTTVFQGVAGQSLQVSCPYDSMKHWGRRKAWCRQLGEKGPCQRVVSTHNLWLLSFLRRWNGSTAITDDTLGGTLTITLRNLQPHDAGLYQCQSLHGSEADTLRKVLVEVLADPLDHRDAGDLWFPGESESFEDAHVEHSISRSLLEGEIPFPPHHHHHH
Assay Protocol: SPR (Biacore), antibody captured via anti-human Fab, recombinant TREM2 ECD injected, 1:1 fit
Could you please report measured pKd for the items listed next?
Answers are plain numbers, as −log10 of the molar value.

INSERT INTO assay_data (binder, measured_endpoint, number) VALUES
  ('CL0020309 (antibody, V domains shown, also called Clone CL0020309) VH: QVQLKQSGPSLVQPSQSLSITCTVSGFSLTSYGVQWVRQSPGKGLEWLGVIWTGGTTDFNAAFKSRLSITKDNSKSQVFFKMNSLQADDSAIYYCAKIGFHSAVDYWGQGTSVTVSS VL: DVLMTQTPLSLPVSLGDQASISCRSSQNIVHSNGNTYLEWYLQKPGQSPKLLIYKVSNRFSGVPDRFSGSGSGTDFTLKINRVEAEDLGLYYCFQGSHIPFTFGSGTQLEIK', 'pKd', 8.27),
  ('CL0020120 (antibody, V domains shown, also called Clone CL0020120) VH: EVQLQQSGPELVRTGASVKISCRASSYSFTDNYIHWVKQTHGRSLEWIGYISGYTGATSYNQKFKGKATFTVDTSSSTAYMQFNSLTSEDSAVYYCARSTMIAPYGMDYWGQGTSVTVSS VL: DIVMTQSHKFMSTSVGDRVNITCKASQDVVTAVAWYQQKPGQSPKLLIYWASTRHTGVPDRFTGSGSGTDFTLTISNVQSEDLADYFCQQYSRYPLTFGAGTKLELK', 'pKd', 8.39);

Read the next record carefully.
Query: # input binder: CL0020210 (antibody, V domains shown, also called Clone CL0020210; CL020210) VH: QIQLVQSGPELRKPGETVKISCKASGYTFTTYGMSWVKQAPGKGLKWMGWINTYSGLPRHSDDFKGRFAFSLETSASTAYLQINNLKNEDTATYFCAREVYYGSRKTAWFAYWGQGTLVTVSA VL: DLVMSQSPSSLAVSVGERITMTCKSSQSLLYSNDQKNYLAWYQQIPGQSPKLLLYWASTRESGVPDRFTGSGSGTDFTLTISSVKAEDLAVYFCQQYYNYPPTFGAGTKLELK ; wanted: its pKd
Response: 8.20
